pIC50: −log10 of the molar value.
Endpoint summary: pIC50, system: Interstitial collagenase (Homo sapiens), multiple sources combined.

O=C(O)[C@@H]1[C@@H](Cn2nnc3ccc(C(F)(F)F)cc3c2=O)CC[C@H]1C(=O)c1ccc(OCC2CCCC2)cc1 (single isomer, unassigned): 5.44

Inquiry: Report measured pIC50 on Interstitial collagenase (Homo sapiens); entry: O=C(NO)[C@H]1CN(C(=O)Cc2ccncc2)CCN1S(=O)(=O)c1cc(F)c(Oc2ccc(Cl)cc2)c(F)c1
Reply text: 4.70 to 6.00

Inquiry: Report measured pIC50 on Interstitial collagenase (Homo sapiens); entry: O=C(CC(CCn1nnc2ccc(C(F)(F)F)cc2c1=O)C(=O)O)c1noc2cc(OCC3CCOCC3)ccc12 (racemic)
Reply text: < 4.40

Inquiry: Report measured pIC50 on Interstitial collagenase (Homo sapiens); entry: O=C(CC(CCn1nnc2ccccc2c1=O)C(=O)O)c1coc2cc(OCC3CCCCC3)ccc12 (single isomer, unassigned; (+))
Reply text: < 4.40

Inquiry: Report measured pIC50 on Interstitial collagenase (Homo sapiens); entry: O=C(O)[C@H]1[C@H](Cn2nnc3ccccc3c2=O)CC[C@@H]1C(=O)c1ccc(OCc2ccccc2)cc1
Reply text: 5.24

====

Endpoint summary: IC50, system: Interstitial collagenase (Homo sapiens, UniProt P03956), multiple sources combined.

NS(=O)(=O)NCCN(C1(C(=O)O)CC1c1ccccc1)S(=O)(=O)c1ccc(-c2ccc(Cl)cc2)cc1 (stereo not drawn): ≥ 10 µM
COCCOC(=O)N1CCN(S(=O)(=O)c2ccc(Oc3ccc(F)cc3)nc2)[C@@H](C(=O)NO)C1: < 0.05 µM

Then there is this molecule:
Inquiry: Report measured IC50 on Interstitial collagenase (Homo sapiens, UniProt P03956); entry: CCCCCCCOc1ccc2cc(C(=O)CC(CCn3nnc4ccccc4c3=O)C(=O)O)oc2c1 (single isomer, unassigned; (+))
Reply text: > 40 µM

====

Endpoint summary: IC50, system: Interstitial collagenase (Homo sapiens, UniProt P03956), multiple sources combined.

Inquiry: Tell us which IC50 value is on record for O=C(O)[C@@H](Cc1ccccc1)NS(=O)(=O)c1ccc(C#Cc2cccc3ccccc23)s1
Reply text: > 10 µM

Inquiry: Tell us which IC50 value is on record for CC(C)(Cc1ccc(Cl)cc1)NC(=O)[C@H](CCC(=O)O)NC(=O)c1ccc(-c2ccccc2)cc1
Reply text: > 200 µM

Inquiry: Tell us which IC50 value is on record for O=C(CN1CCOCC1)NC(=O)N1CCN(S(=O)(=O)c2cc(F)c(Oc3ccc(Cl)cc3)c(F)c2)[C@@H](C(=O)NO)C1
Reply text: 1 to 20 µM

Inquiry: Tell us which IC50 value is on record for O=C(O)c1cnn(CCN([C@]2(C(=O)O)C[C@H]2c2ccccc2)S(=O)(=O)N2CCN(c3ccc(C(F)(F)F)cc3)CC2)c1 (relative stereo)
Reply text: ≥ 10 µM

Inquiry: Tell us which IC50 value is on record for O=C(O)[C@@H]1[C@@H](Cn2nnc3ccc(C(F)(F)F)cc3c2=O)CC[C@H]1C(=O)c1ccc(OCc2ccc(Cl)cc2)cc1 (single isomer, unassigned)
Reply text: 2.3 µM

Inquiry: Tell us which IC50 value is on record for O=C(NO)[C@H]1CN(C(=O)c2cc(F)c(O)c(F)c2)CCN1S(=O)(=O)c1cc(F)c(Oc2ccc(Cl)cc2)c(F)c1
Reply text: 1 to 20 µM

Inquiry: Tell us which IC50 value is on record for CN([C@@]1(C(=O)O)C[C@@H]1c1ccccc1)S(=O)(=O)c1ccc(-c2ccc(Cl)cc2)s1
Reply text: ≥ 10 µM

Inquiry: Tell us which IC50 value is on record for Cc1ccc2nnn(C[C@H]3CC[C@@H](C(=O)c4ccc(OCc5ccccc5)cc4)[C@@H]3C(=O)O)c(=O)c2c1 (single isomer, unassigned)
Reply text: 3.1 µM

Inquiry: Tell us which IC50 value is on record for O=C(O)CN([C@]1(C(=O)O)C[C@H]1c1ccccc1C(F)(F)F)S(=O)(=O)c1ccc(-c2ccc(Cl)cc2)cc1 (relative stereo)
Reply text: ≥ 10 µM

Inquiry: Tell us which IC50 value is on record for O=C(NO)[C@H]1CN(C(=O)CN2CCOCC2)CCN1S(=O)(=O)c1cc(F)c(Oc2ccc(Cl)cc2)c(F)c1
Reply text: > 20 µM
